target: HCV polymerase (NS5B570n-Con1) (Hepatitis C virus genotype 1b); construct: contains a 21 amino acid deletion at the C-terminus relative to the full-length HCV polymerase; 6-histidine (N); assay: HCV NS5B RNA polymerase activity
pIC50: −log10 of the molar value.
Property Name: pIC50

molecule="[N-]=[N+]=N[C@]1(COP(=O)(O)O)O[C@@H](n2ccc(=O)[nH]c2=O)[C@H](O)[C@@H]1O [4′-AU monophosphate]" measured_value=6.66

Recorded values, source patent US8063025B2.
